Test system: MKL-1
Assay: qHTS assay to identify novel small-molecules to repurpose for Merkel cell carcinoma treatment (AID 1296009); further: on the % scale 0 is the no-effect control and ±100 the full control effect; nearly all actives have a fitted effect of over 60% in size
Conditions: MCC and control cell lines, CellTiter-Glo viability, 72 h; series mostly up to 46 µM
Results filed as inconclusive are left out. The source made the active and inactive calls. The call rests on the fitted dose curve; in most records, active means well fitted inhibition curve with a large enough effect; inconclusive means small, poorly fitted or top-dose-only effect; inactive means flat fitted curve, though single readings scatter.
Attribute Measured: activity change, negative = cytotoxicity

Sample records with activity change, negative = cytotoxicity:
{"Sample Smiles": "CN[C@@H]1[C@H](O)[C@H](NC)[C@H]2O[C@@]3(O)C(=O)C[C@@H](C)O[C@H]3O[C@@H]2[C@H]1O", "Endpoint Result": "inactive"}
{"Sample Smiles": "COc1ccccc1OC(=O)Oc1ccccc1OC", "Endpoint Result": "inactive"}
{"Sample Smiles": "CCCCCCCC(=O)OCC(COC(=O)CCCCCCC)OC(=O)CCCCCCC", "Endpoint Result": "inactive"}
{"Sample Smiles": "Cc1ccc(S(=O)(=O)NC(=O)NC2CCCCCCC2)cc1", "Endpoint Result": "inactive"}
{"Sample Smiles": "CC(C)=CCC/C(C)=C/CO", "Endpoint Result": "inactive"}

Now consider the entry below.
Short answer for "C[C@@H]1O[C@@H](OC[C@H]2O[C@@H](Oc3c(-c4ccc(O)c(O)c4)oc4cc(O)cc(O)c4c3=O)[C@H](O)[C@@H](O)[C@@H]2O)[C@H](O)[C@H](O)[C@H]1O" : activity change, negative = cytotoxicity was inactive

====

Assignment: determine reported activity, negative = cell killing for the given molecules.
Assay: Drug repurposing screens with cells derived from glioblastoma tumor samples (AID 1345199); further: on the % scale 0 is the no-effect control and ±100 the full control effect; nearly all actives have a fitted effect of over 40% in size
Details: GBM patient neurospheres viability, ATP luminescence, 48 h; at 45.9 µM (top of the series); tumour line D
Inconclusive results are not listed.
State just the number; it will be interpreted in %.

Noted for "Nc1ccc(S(=O)(=O)c2ccc(N)cc2)cc1" : its activity, negative = cell killing reads 8.15

// activity, negative = cell killing lookup, molecule = "CC1(C)S[C@@H]2[C@H](N=CN3CCCCCC3)C(=O)N2[C@H]1C(=O)O" , result: 9.1

Sample "Cc1cccc(C(=O)O)c1O" ; activity, negative = cell killing observed: -5.93

# activity, negative = cell killing of CN1C(=O)CC(c2ccccc2)C1=O (configuration not stated) = 1.43

Reported activity, negative = cell killing for "NC(=O)N[C@@H](CCC(=O)O)C(=O)O" was -8.74

// "COC(=O)N/N=C/c1c[n+]([O-])c2ccccc2[n+]1[O-]" : activity, negative = cell killing value = -10.1

Sure, the documented activity, negative = cell killing for "CCN(CC)S(=O)(=O)c1ccc(C(=O)O)cc1" is -3.35

get_value(item= "CCCCOC(=O)c1ccc(N)cc1" , readout=activity, negative = cell killing) returns -24.9

Noted for "Cc1cccc(C)c1NC(=O)CC12CCCN1CCC2" : its activity, negative = cell killing reads -15.8

In plain terms, OCC(O)CS (configuration not stated) has a documented activity, negative = cell killing of -1.81

# activity, negative = cell killing (molecule: "COc1ccc(-c2cc(=O)c3c(O)cc(O[C@@H]4O[C@H](CO[C@@H]5O[C@@H](C)[C@H](O)[C@@H](O)[C@H]5O)[C@@H](O)[C@H](O)[C@H]4O)cc3o2)cc1O" ) is 0.355

The molecule listed as C[N+](C)(C)CC(O)CC(=O)[O-] (configuration not stated) has a reported activity, negative = cell killing of -13.3

Entry "COc1ccc(O)cc1" ; activity, negative = cell killing = -17.8

What the record says about "CC(=O)Oc1cccc(O)c1" : activity, negative = cell killing is -17.1

Looking up "Cc1ncc(CO)c(CN)c1O" , I found its activity, negative = cell killing recorded as 6.58

Memo: "Cc1[nH]c(C)c(Cl)c(=O)c1Cl" , reported activity, negative = cell killing: -2.96

GET /value?item= CC(C)CCCC(C)CCCC(C)CCCCC(C)CCCC(C)CCCC(C)C (configuration not stated) &field=activity, negative = cell killing returns 2.23

"Cc1cc(=O)[nH]c(=S)[nH]1" has a reported activity, negative = cell killing of 2.62

activity, negative = cell killing recorded for this molecule, "CC(=O)N[C@@H](Cc1ccc(O)cc1)C(=O)O" , is -7.49

Value of activity, negative = cell killing reported for the molecule "O=C(O)Cc1ccc(CCNS(=O)(=O)c2ccc(Cl)cc2)cc1" is -6.01

So for "C[C@@H]1O[C@@H](OC[C@H]2O[C@@H](Oc3c(-c4ccc(O)c(O)c4)oc4cc(O)cc(O)c4c3=O)[C@H](O)[C@@H](O)[C@@H]2O)[C@H](O)[C@H](O)[C@H]1O" , the logged activity, negative = cell killing turned out to be 3.42

Noted for CC1(c2ccccc2)OC(C(=O)O)=CC1=O (configuration not stated) : its activity, negative = cell killing reads -9.61

For reference, reported activity, negative = cell killing for "O=C(O)c1cc(=O)c2ccccc2o1" stands at -22.4

Lab book: activity, negative = cell killing of CC1CCc2cc(F)cc3c(=O)c(C(=O)O)cn1c23 (configuration not stated) noted as -19

The reported activity, negative = cell killing of the molecule "Nc1ccncc1N" was -6.96

Looking up "O=c1[nH]c2cc(C(F)(F)F)c(N3CCOCC3)cc2n(CP(=O)(O)O)c1=O" , I see its activity, negative = cell killing listed as -2.48

Field activity, negative = cell killing (entry "CCCCCCCCCCCCCCCCN" ) reads -19.2

The recorded activity, negative = cell killing for CC(CSC(=O)c1ccccc1)C(=O)N1C[C@@H](Sc2ccccc2)C[C@H]1C(=O)O (some centres not stated) is 5.1

Entry "OCCN1C[C@H](O)[C@@H](O)[C@H](O)[C@H]1CO" — recorded activity, negative = cell killing = -2.64

# molecule "COc1ccccc1OC(=O)Oc1ccccc1OC" ; its activity, negative = cell killing = -3.45

# molecule "O=C(/C=C/c1ccc(O)c(O)c1)O[C@@H]1C[C@@](OC(=O)/C=C/c2ccc(O)c(O)c2)(C(=O)O)C[C@@H](O)[C@@H]1O" ; its activity, negative = cell killing = -4.97

For this molecule ( "O=C(Cn1ccnc1[N+](=O)[O-])NCc1ccccc1" ), measured activity, negative = cell killing is 3.98

Recorded result, "CC(=O)Oc1cccc(C)c1" , activity, negative = cell killing: -6.87

Entry "CCOC(=O)[C@H](CCc1ccccc1)N[C@@H](C)C(=O)N1Cc2cc(OC)c(OC)cc2C[C@H]1C(=O)O" , activity, negative = cell killing reported as -6.92

Value of measured activity, negative = cell killing for the entry "CC(C)C[C@@H](N)C(=O)O" : 29.1

The recorded activity, negative = cell killing for entry CC(O)CCCCn1c(=O)c2c(ncn2C)n(C)c1=O (configuration not stated) equals -16.4

"Cc1onc(-c2ccccc2)c1-c1ccc(S(N)(=O)=O)cc1" yielded activity, negative = cell killing of -24.2
